Target: T1, Human IL2Rγ extracellular domain expressed with a C-terminal mouse IgG2a Fc tag (human)
T1 construct: whole entry is the Fc-fused construct; also called hIL-2Rg-mFc
T1 chain: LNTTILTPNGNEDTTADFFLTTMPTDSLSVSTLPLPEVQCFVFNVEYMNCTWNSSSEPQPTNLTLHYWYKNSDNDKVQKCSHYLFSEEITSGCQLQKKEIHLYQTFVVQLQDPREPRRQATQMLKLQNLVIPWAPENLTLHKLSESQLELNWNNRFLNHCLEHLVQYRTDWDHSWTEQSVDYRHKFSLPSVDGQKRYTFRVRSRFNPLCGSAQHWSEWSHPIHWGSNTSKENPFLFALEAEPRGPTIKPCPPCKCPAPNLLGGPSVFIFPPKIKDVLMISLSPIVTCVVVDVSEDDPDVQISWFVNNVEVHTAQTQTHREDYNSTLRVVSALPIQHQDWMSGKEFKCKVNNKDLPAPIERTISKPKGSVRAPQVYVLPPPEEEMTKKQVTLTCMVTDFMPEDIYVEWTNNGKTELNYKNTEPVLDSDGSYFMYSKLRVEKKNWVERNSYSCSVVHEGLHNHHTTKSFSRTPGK
Experiment: SPR Biacore 4000, anti-hFc-captured mAb, 25 C
Can you tell me 50 nM Ag Bound for the items I'm about to list?
Numbers only, in RU.

binder	unitAbbreviation	50 nM Ag Bound
H4H12884P (antibody, human IgG4 S228P, kappa, V domains shown, fully human anti-IL2Rgamma mAb, human IgG4 Fc) VH: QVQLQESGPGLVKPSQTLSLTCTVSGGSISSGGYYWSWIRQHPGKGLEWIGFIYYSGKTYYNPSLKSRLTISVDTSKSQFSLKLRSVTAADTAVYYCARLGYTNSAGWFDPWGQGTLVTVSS VL: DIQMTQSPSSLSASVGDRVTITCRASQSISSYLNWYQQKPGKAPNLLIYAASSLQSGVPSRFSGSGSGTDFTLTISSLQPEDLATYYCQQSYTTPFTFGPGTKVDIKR	RU	112
H4H12871P (antibody, human IgG4 S228P, kappa, V domains shown, fully human anti-IL2Rgamma mAb, human IgG4 Fc; also called REGN9434) VH: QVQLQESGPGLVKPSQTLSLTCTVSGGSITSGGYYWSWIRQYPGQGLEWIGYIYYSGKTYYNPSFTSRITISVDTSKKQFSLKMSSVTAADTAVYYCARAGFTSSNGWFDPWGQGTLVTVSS VL: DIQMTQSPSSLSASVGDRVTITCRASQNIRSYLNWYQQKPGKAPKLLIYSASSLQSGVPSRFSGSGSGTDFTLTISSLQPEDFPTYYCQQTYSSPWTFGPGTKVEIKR	RU	103

# input for lookup
H4H12889P (antibody, human IgG4 S228P, kappa, V domains shown, fully human anti-IL2Rgamma mAb, human IgG4 Fc; also called REGN7257) VH: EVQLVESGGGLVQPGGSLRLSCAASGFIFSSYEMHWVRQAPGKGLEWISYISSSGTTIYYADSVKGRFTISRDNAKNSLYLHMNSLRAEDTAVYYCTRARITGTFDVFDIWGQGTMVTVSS VL: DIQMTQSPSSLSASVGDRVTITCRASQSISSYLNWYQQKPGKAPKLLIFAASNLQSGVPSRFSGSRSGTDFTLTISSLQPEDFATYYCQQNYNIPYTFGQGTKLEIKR yielded 50 nM Ag Bound of 69
